Target: T1, human RANK-L (human, UniProt O14788 140-317, limits assumed)
T1 construct: Soluble protein, used coated, biotinylated or labelled in ELISA, AlphaScreen, FMAT and Biacore; also called hRANK-L; soluble human RANK-L
T1 sequence (looked up): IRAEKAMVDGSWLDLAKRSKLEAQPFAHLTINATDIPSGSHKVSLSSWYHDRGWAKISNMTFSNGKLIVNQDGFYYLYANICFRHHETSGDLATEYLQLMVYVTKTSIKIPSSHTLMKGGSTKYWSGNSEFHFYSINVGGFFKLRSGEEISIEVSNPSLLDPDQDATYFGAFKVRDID
Assay: SPR Biacore 3000, hRANK-L on CM5, 100 nM Nanobody; only indicative (one concentration)
In this section, each of the binders is paired with its reported pKd.
To interpret pKd, take it as minus log10 of a concentration measured in moles per litre.

| binder | pKd |
| --- | --- |
| RANKL18hum6 (VHH) VHH: EVQLVESGGGLVQPGGSLRLSCAASGRTFSRSAMGWFRQAPGKGREFVGFITGSGGTTYYADSVKGRFTISRDNAQNPVYLQMNSLRPEDTAVYYCAVYRRTYISSTYSESSEYDYWGQGTLVTVSS | 9.80 |
| RANKL13hum1 (VHH) VHH: EVQLVESGGGLVQPGGSLRLSCAASGFTFRSYPMGWFRQAPGKGREFVASITGSGGSTYYADSVKGRFTISRDNAKNTLYLQMNSLRPEDTAVYSCAAYIRPDTYLSRDYRKYDYWGQGTLVTVSS | 9.97 |
| RANKL18hum1 (VHH, name in Kabat numbering) VHH: EVQLVESGGGLVQPGGSLRLSCAASGFTFSRSAMGWFRQAPGKGREFVGFITGSGGTTYYGESVKGRFTISRDNAQNPVYLQMNSLRPEDTAVYYCGVYRRTYISSTYSESSEYDYWGQGTLVTVSS | 8.81 |
| RANKL13hum2 (VHH, name in Kabat numbering) VHH: EVQLVESGGGLVQPGGSLRLSCAASGRTFSSYPMGWFRQAPGKGREFVASITGSGGSTYYADSVKGRFTISRDNAKNTLYLQMNSLRPEDTAVYSCAAYIRPDTYLSRDYRKYDYWGQGTLVTVSS | 9.06 |
| RANKL13hum5 (VHH) VHH: EVQLVESGGGLVQPGGSLRLSCAASGFTFSSYPMGWFRQAPGKGREFVSSITGSGGSTYYADSVKGRFTISRDNAKNTLYLQMNSLRPEDTAVYYCAAYIRPDTYLSRDYRKYDYWGQGTLVTVSS | 9.59 |
| RANKL13basic (VHH, Humanized variant of RANKL13; also called RANKL13humbasic) VHH: EVQLVESGGGLVQPGGSLRLSCAASGRTFRSYPMGWFRQAPGKGREFVASITGSGGSTYYADSVKGRFTISRDNAKNTLYLQMNSLRPEDTAVYSCAAYIRPDTYLSRDYRKYDYWGQGTLVTVSS | 9.67 |

Now for the binder whose pKd we want.
I am curious: what pKd value has been reported for RANKL18hum2 (VHH, name in Kabat numbering) VHH: EVQLVESGGGLVQPGGSLRLSCAASGRTFSRSAMGWFRQAPGKGREFVSFITGSGGTTYYGESVKGRFTISRDNAQNPVYLQMNSLRPEDTAVYYCGVYRRTYISSTYSESSEYDYWGQGTLVTVSS ?
8.56
